These entries and their values trace back to patent US20180185504A1.

- Assay System: T1, mfPRLR.mmh (soluble monomeric macaca fascicularis PRLR) (macaca fascicularis)
- T1 construct: soluble monomeric PRLR protein; also called macaca fascicularis (mf) PRLR.mmh; monkey PRLR
- T1 chain: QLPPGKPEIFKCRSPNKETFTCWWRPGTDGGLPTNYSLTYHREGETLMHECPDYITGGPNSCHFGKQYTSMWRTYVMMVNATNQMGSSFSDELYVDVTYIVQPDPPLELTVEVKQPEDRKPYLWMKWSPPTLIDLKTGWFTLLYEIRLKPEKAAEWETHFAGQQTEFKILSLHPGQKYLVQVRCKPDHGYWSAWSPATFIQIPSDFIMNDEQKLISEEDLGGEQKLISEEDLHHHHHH
- Method Description: SPR (Biacore), antibody capture, 37 C
Parameter: Kd. Scope: all listed entries.
Quick note: give the figure in nM, leave out the unit.

H1H6801P (antibody, human IgG1, V domains shown, human IgG1 Fc (H1H)) VH: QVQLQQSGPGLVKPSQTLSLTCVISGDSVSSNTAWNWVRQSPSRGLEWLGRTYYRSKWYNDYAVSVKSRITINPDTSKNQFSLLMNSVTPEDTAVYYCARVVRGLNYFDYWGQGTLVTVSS VL: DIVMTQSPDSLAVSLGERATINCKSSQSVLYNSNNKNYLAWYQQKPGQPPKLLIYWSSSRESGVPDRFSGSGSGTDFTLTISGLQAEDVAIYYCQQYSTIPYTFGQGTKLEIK    10.8
H1H6795P (antibody, human IgG1, V domains shown, human IgG1 Fc (H1H)) VH: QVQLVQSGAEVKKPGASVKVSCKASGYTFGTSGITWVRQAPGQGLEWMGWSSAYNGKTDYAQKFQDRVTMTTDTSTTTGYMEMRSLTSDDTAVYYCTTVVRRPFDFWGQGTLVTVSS VL: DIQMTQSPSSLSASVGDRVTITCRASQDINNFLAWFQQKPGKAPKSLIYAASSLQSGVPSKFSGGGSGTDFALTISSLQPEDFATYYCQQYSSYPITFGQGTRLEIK    6.16

q: Recorded Kd for H1H6953N (antibody, human IgG1, V domains shown, also called H1M6953N) VH: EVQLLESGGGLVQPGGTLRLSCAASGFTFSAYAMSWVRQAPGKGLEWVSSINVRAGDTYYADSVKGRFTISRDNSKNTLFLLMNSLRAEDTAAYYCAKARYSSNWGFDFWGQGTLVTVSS VL: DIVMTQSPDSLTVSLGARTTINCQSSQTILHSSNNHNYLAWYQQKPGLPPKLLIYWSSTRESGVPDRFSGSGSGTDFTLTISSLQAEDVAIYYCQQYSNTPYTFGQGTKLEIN , please?
a: 2.71
